Values were extracted from patent US8143374B2.

methodDescription: Circular dichroism spectroscopy, helical residues per peptide chain
Format: physicochemical
testContext: [Ala1,Arg19]hPTH(1-31)NH2 analogs; calculated from [θ]222
Where no end group is shown, it is not given here.
observable: CD helical residues
One number for each entry.

Examples from the recorded data:
substance: AVSEIQLMHNLGKHLNSMERVEWLRKKLQDV-NH2 [Arg^19→Glu]
CD helical residues: 9
//
substance: AVSEIQLMHNLGKHLNSMRRVEWLRKELQDV-NH2 [Lys^27→Glu]
CD helical residues: 5
//
substance: AVSEIQLMHNLGKHLNSMRRVEWLREKLQDV-NH2 [Lys^26→Glu]
CD helical residues: 6
//
substance: AVSEIQLMHNLGKHLNSMRRVEELRKKLQDV-NH2 [Trp^23→Glu]
CD helical residues: 7
//
substance: AVSEIQLMHNLGKHLNSMRRVEWLEKKLQDV-NH2 [Arg^25→Glu]
CD helical residues: 5

// for each substance below, give its CD helical residues
1. AVSEIQLMHNLGKHLNSMRRVEWERKKLQDV-NH2 [Leu^24→Glu]
2. SVSEIQLMHNLGKHLNSMEEVEWLRKKLQDV [Arg^20→Glu]
3. AVSEIQLMHNLGKHLNSMRREEWLRKKLQDV-NH2 [Val^21→Glu]
4. AVSEIQLMHNLGKHLNSMRRVEWLRKKEQDV-NH2 [Leu^28→Glu]

Solution:
[6, 8, 7, 5]
